# tested_on: h-GABA-A α5β3γ2 (Homo sapiens, UniProt P18507+P31644)
# Construct: expressed in transfected cells; host or cells: Xenopus laevis oocytes, micro-injected with subunit RNA
# Sequence (P31644 32-462): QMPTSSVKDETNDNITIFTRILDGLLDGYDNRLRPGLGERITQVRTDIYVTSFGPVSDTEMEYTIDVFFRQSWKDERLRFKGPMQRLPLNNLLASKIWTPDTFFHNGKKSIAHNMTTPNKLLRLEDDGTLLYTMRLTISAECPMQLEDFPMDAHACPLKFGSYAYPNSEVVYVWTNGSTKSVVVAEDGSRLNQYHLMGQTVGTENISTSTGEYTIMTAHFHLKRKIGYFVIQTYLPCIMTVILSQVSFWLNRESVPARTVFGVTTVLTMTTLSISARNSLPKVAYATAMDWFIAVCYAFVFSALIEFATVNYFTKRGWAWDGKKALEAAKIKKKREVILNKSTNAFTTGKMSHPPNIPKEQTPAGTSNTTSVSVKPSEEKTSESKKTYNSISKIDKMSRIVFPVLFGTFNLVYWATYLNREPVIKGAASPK
# Sequence (P28472 26-473 partner): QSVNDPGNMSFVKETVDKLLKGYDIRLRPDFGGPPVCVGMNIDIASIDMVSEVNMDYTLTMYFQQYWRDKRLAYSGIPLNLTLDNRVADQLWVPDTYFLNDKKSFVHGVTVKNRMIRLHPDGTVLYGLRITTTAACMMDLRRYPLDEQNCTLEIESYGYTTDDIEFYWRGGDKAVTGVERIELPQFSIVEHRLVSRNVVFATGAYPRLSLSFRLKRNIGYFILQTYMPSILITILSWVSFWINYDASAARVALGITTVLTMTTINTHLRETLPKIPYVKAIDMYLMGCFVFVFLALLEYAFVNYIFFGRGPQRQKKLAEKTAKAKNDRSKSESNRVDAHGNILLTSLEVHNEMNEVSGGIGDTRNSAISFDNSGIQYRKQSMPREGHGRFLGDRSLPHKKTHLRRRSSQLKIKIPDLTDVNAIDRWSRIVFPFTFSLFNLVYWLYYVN
# Sequence (P18507 40-475): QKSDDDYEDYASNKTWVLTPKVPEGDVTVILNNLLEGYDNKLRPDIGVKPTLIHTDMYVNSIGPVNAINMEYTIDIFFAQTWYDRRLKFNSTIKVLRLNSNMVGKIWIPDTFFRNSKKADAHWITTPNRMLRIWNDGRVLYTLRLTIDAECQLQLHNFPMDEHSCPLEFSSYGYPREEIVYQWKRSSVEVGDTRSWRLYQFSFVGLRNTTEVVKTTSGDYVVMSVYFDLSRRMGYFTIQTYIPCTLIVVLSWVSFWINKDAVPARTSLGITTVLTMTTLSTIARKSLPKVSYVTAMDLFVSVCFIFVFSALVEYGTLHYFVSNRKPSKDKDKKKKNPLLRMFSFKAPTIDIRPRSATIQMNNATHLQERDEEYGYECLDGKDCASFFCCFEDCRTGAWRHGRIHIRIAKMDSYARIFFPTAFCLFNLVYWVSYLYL
# protocol_description: Two-electrode voltage clamp electrophysiology in Xenopus oocytes expressing GABAA receptors (modulation of GABA EC20 current)
# Assay type: cell-based
# conditions: Table 1; Xenopus oocytes, GABA EC20, test compound at approximatively 30 fold its Ki
Listed here are compounds together with their documented Fold increase h-GABA-A α5β3γ2 oocyte.

query_smiles: CC(C)N1CCN(c2cnn(Cc3c(-c4ccc(C(F)(F)F)cc4F)nnn3C)c(=O)c2)C[C@@H]1C
Fold increase h-GABA-A α5β3γ2 oocyte: 2.27

query_smiles: Cn1nnc(-c2ncc(C(F)(F)F)cn2)c1Cn1ncc(N2CC(OC(F)F)C2)cc1=O
Fold increase h-GABA-A α5β3γ2 oocyte: 1.89

query_smiles: Cc1nnn(-c2ccc(Cl)cc2F)c1Cn1ncc(N2CC(OCC(F)(F)F)C2)cc1=O
Fold increase h-GABA-A α5β3γ2 oocyte: 1.85

query_smiles: Cn1nnc(-c2ccc(Cl)cc2F)c1Cn1ncc(N2CC(Oc3ccncn3)C2)cc1=O
Fold increase h-GABA-A α5β3γ2 oocyte: 2.06

query_smiles: Cn1cc(-c2cnn(Cc3c(-c4ccc(Cl)cc4F)nnn3C)c(=O)c2)cn1
Fold increase h-GABA-A α5β3γ2 oocyte: 1.76

query_smiles: C[C@@H]1CCCN1c1cnn(Cc2c(-c3ccc(Cl)nc3)nnn2C)c(=O)c1
Fold increase h-GABA-A α5β3γ2 oocyte: 1.75

query_smiles: COc1ccc(-c2cnn(Cc3c(-c4ccc(Cl)cc4F)nnn3C)c(=O)c2)cn1
Fold increase h-GABA-A α5β3γ2 oocyte: 1.5

query_smiles: Cn1nnc(-c2ccc(Cl)cc2)c1Cn1ncc(N2CC(OCC(F)F)C2)cc1=O
Fold increase h-GABA-A α5β3γ2 oocyte: 1.76

query_smiles: Cn1nnc(-c2ccc(Cl)cc2F)c1Cn1ncc(N2CC(Oc3ccccn3)C2)cc1=O
Fold increase h-GABA-A α5β3γ2 oocyte: 1.97

query_smiles: Cc1nnn(-c2ccc(Cl)cc2F)c1Cn1ncc(N(C)C)cc1=O
Fold increase h-GABA-A α5β3γ2 oocyte: 1.58

query_smiles: Cc1nnn(-c2ccc(Cl)cc2)c1Cn1ncc(N(C)C)cc1=O
Fold increase h-GABA-A α5β3γ2 oocyte: 1.31

query_smiles: COc1cc(-c2cnn(Cc3c(-c4ccc(Cl)cc4F)nnn3C)c(=O)c2)cnc1Cl
Fold increase h-GABA-A α5β3γ2 oocyte: 1.46

query_smiles: CCOC1CN(c2cnn(Cc3c(-c4ccc(C(F)(F)F)cc4F)nnn3C)c(=O)c2)C1
Fold increase h-GABA-A α5β3γ2 oocyte: 1.7

query_smiles: CCn1nnc(-c2ccc(Cl)cc2F)c1Cn1ncc(-c2cccc(C#N)n2)cc1=O
Fold increase h-GABA-A α5β3γ2 oocyte: 3.9

query_smiles: Cn1nnc(-c2ccc(Cl)cc2F)c1Cn1ncc(N2CC3(CCCCO3)C2)cc1=O
Fold increase h-GABA-A α5β3γ2 oocyte: 1.58

query_smiles: Cn1nnc(-c2ccc(Cl)cc2F)c1Cn1ncc(N2CC(OCC(F)F)C2)cc1=O
Fold increase h-GABA-A α5β3γ2 oocyte: 1.82

query_smiles: Cn1nnc(-c2ccc(Cl)cc2F)c1Cn1ncc(N2CC(Oc3ccc(Cl)nc3)C2)cc1=O
Fold increase h-GABA-A α5β3γ2 oocyte: 1.55
